Recorded values, source the supplement of paper PMC11061612.

- System: SW684 (Other Solid Carcinomas)
- PROCEDURE DETAILS: combination Emax (second highest fraction inhibited in the dose matrix, 72 h); higher = more inhibition; extreme values may be limits of the assay
Assign class by combination Emax: not lower than 0.5 means y; lower than 0.5 means n.

Task: Could you please find out whether CS(=O)(=O)CCNCc1ccc(-c2ccc3ncnc(Nc4ccc(OCc5cccc(F)c5)c(Cl)c4)c3c2)o1 [Lapatinib] + C[C@@H](Oc1cc(-c2cnn(C3CCNCC3)c2)cnc1N)c1c(Cl)ccc(F)c1Cl [Crizotinib] (first compound max 10 µM, 7x7, partner max 10 µM) has combination Emax that meets 0.5 or exceeds it?
Result: y

Task: Please give the result for O=C(c1cc(Cc2n[nH]c(=O)c3ccccc23)ccc1F)N1CCN(C(=O)C2CC2)CC1 [Olaparib] + CN(CC[C@H](CSC1=CC=CC=C1)NC2=C(C=C(C=C2)S(=O)(=O)NC(=O)C3=CC=C(C=C3)N4CCC(CC4)[C@H](C5=CC=CC=C5C6=CC=C(C=C6)Cl)O)S(=O)(=O)C(F)(F)F)CCO [AZD4320] (first compound max 10 µM, 7x7, partner max 1 µM) too.
Result: n

Task: Please give the result for C[C@@H]1COCCN1c1cc(C2([S@](C)(=N)=O)CC2)nc(-c2ccnc3[nH]ccc23)n1 [AZD6738] + Nc1ccn([C@@H]2O[C@H](CO)[C@@H](O)C2(F)F)c(=O)n1 [Gemcitabine] (first compound max 10 µM, 7x7, partner max 0.3 µM) too.
Result: y

Task: Please give the result for CC1(C)CCC(CN2CCN(c3ccc(C(=O)NS(=O)(=O)c4ccc(NCC5CCOCC5)c([N+](=O)[O-])c4)c(Oc4cnc5[nH]ccc5c4)c3)CC2)=C(c2ccc(Cl)cc2)C1 [Venetoclax] + C[C@@H]1COCCN1C2=NC(=NC(=C2)C3(CC3)[S@](=N)(=O)C)C4=C5C=CNC5=NC=C4 [AZD6738] (first compound max 1 µM, 7x7, partner max 10 µM) too.
Result: n

Task: Please give the result for CC1(C)CCC(CN2CCN(c3ccc(C(=O)NS(=O)(=O)c4ccc(NCC5CCOCC5)c([N+](=O)[O-])c4)c(Oc4cnc5[nH]ccc5c4)c3)CC2)=C(c2ccc(Cl)cc2)C1 [Venetoclax] + C=CCn1c(=O)c2cnc(Nc3ccc(N4CCN(C)CC4)cc3)nc2n1-c1cccc(C(C)(C)O)n1 [AZD1775] (first compound max 1 µM, partner max 1 µM) too.
Result: y

Task: Please give the result for COc1cccc(OCCCN)c1-c1cc(Nc2cnc(C#N)cn2)n[nH]1 [Prexasertib] + CCc1c2c(nc3ccc(O)cc13)-c1cc3c(c(=O)n1C2)COC(=O)[C@]3(O)CC [SN-38] (first compound max 1 µM, 7x7, partner max 0.3 µM) too.
Result: y

Task: Please give the result for COc1nnc2ccc(N3CCC(c4ccc(OCCN5CCN(C)C(=O)[C@H]5C)cc4)CC3)nn12 [AZD5153] + C[C@@H]1COCCN1C2=NC(=NC(=C2)C3(CC3)[S@](=N)(=O)C)C4=C5C=CNC5=NC=C4 [AZD6738] (first compound max 1 µM, 7x7, partner max 10 µM) too.
Result: n

Task: Please give the result for CC1(C)CCC(CN2CCN(c3ccc(C(=O)NS(=O)(=O)c4ccc(NCC5CCOCC5)c([N+](=O)[O-])c4)c(Oc4cnc5[nH]ccc5c4)c3)CC2)=C(c2ccc(Cl)cc2)C1 [Venetoclax] + CCN(CCO)CCCOc1ccc2c(Nc3cc(CC(=O)Nc4cccc(F)c4)[nH]n3)ncnc2c1 [AZD2811] (first compound max 1 µM, 7x7, partner max 1 µM) too.
Result: n

Task: Please give the result for CC1(C)CCC(CN2CCN(c3ccc(C(=O)NS(=O)(=O)c4ccc(NCC5CCOCC5)c([N+](=O)[O-])c4)c(Oc4cnc5[nH]ccc5c4)c3)CC2)=C(c2ccc(Cl)cc2)C1 [Venetoclax] + CN(C)CCCOc1ccc(-c2ccc3ncc4c(c3c2)n(C2CCOCC2)c(=O)n4C)cn1 [AZD0156] (first compound max 1 µM, 7x7, partner max 1 µM) too.
Result: n

Task: Please give the result for CCN(CCO)CCCOc1ccc2c(Nc3cc(CC(=O)Nc4cccc(F)c4)[nH]n3)ncnc2c1 [AZD2811] + C[C@@H]1COCCN1C2=NC(=NC(=C2)C3(CC3)[S@](=N)(=O)C)C4=C5C=CNC5=NC=C4 [AZD6738] (first compound max 1 µM, 7x7, partner max 10 µM) too.
Result: n

Task: Please give the result for Cc1c2c(nn1C)CSCc1cc(n(C)n1)CSc1cc(c3ccccc3c1)OCCCc1c(C(=O)O)n(C)c3c-2c(Cl)ccc13 [AZD5991] + C[C@@H](Nc1cc(F)cc(F)c1)c1cc(C(=O)N(C)C)cc2c(=O)cc(N3CCOCC3)oc12 [AZD8186] (first compound max 1 µM, 7x7, partner max 3 µM) too.
Result: n

Task: Please give the result for Cc1c2c(nn1C)CSCc1cc(n(C)n1)CSc1cc(c3ccccc3c1)OCCCc1c(C(=O)O)n(C)c3c-2c(Cl)ccc13 [AZD5991] + Nc1ccn([C@@H]2O[C@H](CO)[C@@H](O)C2(F)F)c(=O)n1 [Gemcitabine] (first compound max 1 µM, 7x7, partner max 0.3 µM) too.
Result: n

Task: Please give the result for Cn1cnc2c(F)c(Nc3ccc(Br)cc3Cl)c(C(=O)NOCCO)cc21 [Selumetinib] + CC(C)n1c(=O)n(C)c2cnc3cc(F)c(-c4ccc(OCCCN5CCCCC5)nc4)cc3c21 [AZD1390] (first compound max 10 µM, 7x7, partner max 0.3 µM) too.
Result: n
